- tested system: wild-type HCV genotype 1b NS5B protein (Hepatitis C virus genotype 1b)
- Construct: HCV genotype 1b NS5B protein were used to generate recombinant HCV polymerases (with a deletion of the 21 carboxy terminal amino acids)
- method notes: HCV polymerase enzyme assay, wild-type

| molecule | IC50 |
| --- | --- |
| C[C@@]1(F)C[C@@H](COP(=O)(O)OP(=O)(O)OP(=O)(O)O)O[C@H]1n1ccc(=O)[nH]c1=O [Compound 102] | 1000 to 10000 nM |
| C[C@@]1(F)C[C@@H](COP(=O)(O)OP(=O)(O)OP(=O)(O)O)O[C@H]1n1cnc2c(=O)[nH]c(N)nc21 [Compound 101] | < 250 nM |

* * *

Below, each of the compounds is paired with its reported CC50 value.
- System: Zluc cells
- method notes: Cytotoxicity evaluation, CellTiter-Blue Cell Viability Assay
- Type: cell-based
- condition info: read-out: HCV Replicon CC50

| compound | CC50 |
| --- | --- |
| CCOc1nc(N)nc2c1ncn2[C@@H]1O[C@H](COP(=O)(N[C@@H](C)C(=O)OC(C)C)Oc2ccccc2)C[C@@]1(C)F (single isomer, unassigned) [2b Diastereomer 2] | > 50 µM |
| CC(C)OC(=O)[C@H](C)NP(=O)(OC[C@@H]1C[C@@](C)(F)[C@H](n2cnc3c(=O)[nH]c(N)nc32)O1)Oc1ccccc1 (single isomer, unassigned) [lb Diastereomer 2] | > 50 µM |
| CC(C)OC(=O)[C@H](C)NP(=O)(OC[C@@H]1C[C@@](C)(F)[C@H](n2ccc(=O)[nH]c2=O)O1)Oc1ccccc1 (single isomer, unassigned) [4b Diastereomer 2] | > 50 µM |

* * *

- method notes: Cytotoxicity evaluation, CellTiter-Blue Cell Viability Assay
- Type: cell-based
- condition info: human, Zluc cells (HCV replicon cells)
// CC50 at 72 h lookup, one value per entry
observable: CC50 at 72 h

| compound | observable | result |
| --- | --- | --- |
| C[C@@]1(F)C[C@@H](CO)O[C@H]1n1ccc(=O)[nH]c1=O [Compound 202] | CC50 at 72 h | > 50 µM |
| C[C@@]1(F)C[C@@H](CO)O[C@H]1n1cnc2c(=O)[nH]c(N)nc21 [Compound 201] | CC50 at 72 h | > 50 µM |
